# target of assay: KRAS(G12D)/SOS1 (Homo sapiens, UniProt P01116, G12D)
# Sequence (P01116 1-188 isoform P01116-2 G12D): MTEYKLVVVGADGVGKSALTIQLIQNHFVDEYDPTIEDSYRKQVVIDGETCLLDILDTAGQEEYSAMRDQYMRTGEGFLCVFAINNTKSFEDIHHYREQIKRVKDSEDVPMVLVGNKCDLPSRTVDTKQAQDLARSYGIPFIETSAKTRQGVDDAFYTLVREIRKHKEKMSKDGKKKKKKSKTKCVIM
# procedure text: KRAS(G12D)/SOS1 homogeneous time-resolved fluorescence (HTRF) assay
# measurement parameters: absence of GTP; 4° C., 3 hr
Entries and their measured IC50 follow.

Please look up its IC50: C#Cc1cccc2cc(O)cc(-c3ncc4c(N5CC6CCC(C5)N6)nc(OC[C@@H]5C[C@H](N6CCN(Cc7ccc8c(c7)CN(C(=O)c7cc(C(C)C)c(O)cc7O)C8)CC6)CN5C)nc4c3F)c12 [Compound 86]
< 100 nM

Please look up its IC50: C#Cc1c(F)ccc2cc(O)cc(-c3ncc4c(N5CC6CCC(C5)N6)nc(OCC5(CN6CCN(CC7CN(Cc8ccc(-n9c(C(=O)NCC(F)(F)F)nnc9-c9cc(C(C)C)c(O)cc9O)cc8)C7)CC6)CC5)nc4c3F)c12 [Compound 166]
< 100 nM

Please look up its IC50: C#Cc1c(F)ccc2cc(O)cc(-c3nc(OC)c4c(N5CC6CCC(C5)N6)nc(OCC5(CN6CCN(CC7CCN(Cc8ccc(-n9c(C(=O)NCC(F)(F)F)nnc9-c9cc(C(C)C)c(O)cc9O)cc8)CC7)CC6)CC5)nc4c3F)c12 [Compound 168]
< 100 nM

Please look up its IC50: C#Cc1cccc2cc(O)cc(-c3ncc4c(N5CC6CCC(C5)N6)nc(OCC5(CN6CCC(OC7CCN(C(=O)C8CCN(Cc9ccc%10c(c9)CN(C(=O)c9cc(C(C)C)c(O)cc9O)C%10)CC8)CC7)CC6)CC5)nc4c3F)c12 [Compound 141]
< 100 nM

* * *

Entries and their measured EC50 follow.
# Test system: AGS gastric carcinoma cells [heterozygous G12D]
# procedure text: Cancer cell line proliferation (CellTiter-Glo), AGS
# Format: cell-based
# measurement parameters: Homo sapiens, 72 hr treatment, read-out: AGS CTG (EC50)

Worked set:
molecule | EC50
CCc1cc(-c2nnc(C(=O)NC)n2-c2ccc(CN3CCN(C(=O)C4CCN([C@H]5C[C@@H](COc6nc(C7CC8CCC(C7)N8)c7cnc(-c8cccc9cccc(Cl)c89)c(F)c7n6)N(C)C5)CC4)CC3)cc2)c(O)cc1O (stereo partly drawn) [Compound 9] | 100 to 1000 nM
C#Cc1c(F)ccc2cc(O)cc(-c3ncc4c(N5CC6CCC(C5)N6)nc(CCC5(CN6CCN(C7CCN(Cc8ccc9c(c8)CN(C(=O)c8cc(C(C)C)c(O)cc8O)C9)CC7)CC6)CC5)nc4c3F)c12 [Compound 161] | < 100 nM
CC(C)c1cc(C(=O)N2Cc3ccc(CN4CCC(C(=O)N5CCN([C@H]6C[C@@H](COc7nc(N8CC9CCC(C8)N9)c8cnc(-c9ccccc9C(F)(F)F)c(F)c8n7)N(C)C6)CC5)CC4)cc3C2)c(O)cc1O [Compound 91] | 100 to 1000 nM
C#Cc1c(F)ccc2cc(O)cc(-c3ncc4c(N5CC6CCC(C5)N6)nc(OCC5(CN6CCN(CC7CCN(c8ccc(-n9c(C(=O)NCC)nnc9-c9cc(C(C)C)c(O)cc9O)cc8)CC7)CC6)CC5)nc4c3F)c12 [Compound 145] | < 100 nM
COc1cccc2cccc(-c3ncc4c(N5CC6CCC(C5)N6)nc(OC[C@@H]5C[C@H](N6CCN(Cc7ccc(-n8c(C(=O)NC(C)C(F)(F)F)nnc8-c8cc(C(C)C)c(O)cc8O)cc7)CC6)CN5C)nc4c3F)c12 (stereo partly drawn) [Compound 106] | < 100 nM
CCNC(=O)c1nnc(-c2cc(C(C)C)c(O)cc2O)n1-c1ccc(CN2CCN([C@H]3C[C@@H](COc4nc(N5CC6CNC(C6)C5)c5cnc(-c6cc(O)cc7ccccc67)c(F)c5n4)N(C)C3)CC2)cc1 (stereo partly drawn) [Compound 85] | 100 to 1000 nM

Entry C#Cc1cccc2cccc(-c3ncc4c(N5CC6CCC(C5)N6)nc(OCCN5CCN(Cc6ccc(-n7c(O)nnc7-c7cc(C(C)C)c(O)cc7O)cc6)CC5)nc4c3F)c12 [Compound 13] , system AGS gastric carcinoma cells [heterozygous G12D]: what EC50 was measured?
100 to 1000 nM

Entry C#Cc1cccc2cc(O)cc(-c3ncc4c(N5CC6CCC(C5)N6)nc(OCC5(CN6CCC(C(=O)N7CCN(C(=O)C8CCN(Cc9ccc%10c(c9)CN(C(=O)c9cc(C(C)C)c(O)cc9O)C%10)CC8)CC7)CC6)CC5)nc4c3F)c12 [Compound 121] , system AGS gastric carcinoma cells [heterozygous G12D]: what EC50 was measured?
< 100 nM

Entry C#Cc1cccc2cc(O)cc(-c3ncc4c(N5CC6CCC(C5)N6)nc(OCC5(CN6CCN(CC7CCN(c8ccc9c(c8)CN(C(=O)c8cc(C(C)C)c(O)cc8O)C9)CC7)CC6)CC5)nc4c3F)c12 [Compound 133] , system AGS gastric carcinoma cells [heterozygous G12D]: what EC50 was measured?
100 to 1000 nM
